The values you see were collected from ChEMBL document CHEMBL1145642.

Molecular target: UniProtKB P14324
Sequence (P14324 whole entry): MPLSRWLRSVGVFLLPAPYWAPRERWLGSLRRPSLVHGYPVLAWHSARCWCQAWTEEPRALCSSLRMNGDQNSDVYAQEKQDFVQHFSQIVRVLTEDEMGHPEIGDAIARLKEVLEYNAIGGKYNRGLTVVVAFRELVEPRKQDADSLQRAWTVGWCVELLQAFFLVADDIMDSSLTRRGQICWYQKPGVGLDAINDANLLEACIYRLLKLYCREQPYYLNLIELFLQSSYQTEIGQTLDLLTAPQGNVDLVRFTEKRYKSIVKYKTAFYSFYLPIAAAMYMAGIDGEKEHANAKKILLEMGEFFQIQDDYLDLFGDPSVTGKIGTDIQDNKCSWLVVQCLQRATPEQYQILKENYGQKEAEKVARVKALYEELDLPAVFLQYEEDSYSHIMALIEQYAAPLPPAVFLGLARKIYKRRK
measurement kind: IC50 (nM)
Give a bare numeral; the unit nM is implied.

Entry O=P(O)(O)C(O)(C1CCc2ccncc21)P(=O)(O)O (stereo unspecified) : reported IC50 = ? 630
